tested on: fibroblasts isolated from patients with cblC disease; assay: MMA in conditioned medium of cblC patient fibroblasts; format: cell-based, human; conditions: WG1801 cblC fibroblasts; after 7 days
outcome.measure: MMA in conditioned medium (μmol/mg protein)
Quick note: give the figure in μmol/mg protein, leave out the unit.

1. CC([S][Co+2])C(=O)NCC(=O)O.CC1=C2N=C(C=C3N=C(C(C)=C4[N-]C(C(CC(N)=O)C4(C)CCC(=O)NCC(C)OP(=O)([O-])OC4C(CO)OC(n5cnc6cc(C)c(C)cc65)C4O)C4(C)N=C1C(CCC(N)=O)C4(C)CC(N)=O)C(CCC(N)=O)C3(C)C)C(CCC(N)=O)C2(C)CC(N)=O (centres unmarked) : 0.212
2. C/C1=C2/[N-][C@H]([C@H](CC(N)=O)[C@@]2(C)CCC(=O)NC[C@H](C)OP(=O)([O-])O[C@H]2[C@@H](O)[C@@H](n3cnc4cc(C)c(C)cc43)O[C@@H]2CO)[C@]2(C)N=C(/C(C)=C3N=C(/C=C4N=C1[C@@H](CCC(N)=O)C\4(C)C)[C@@H](CCC(N)=O)[C@]\3(C)CC(N)=O)[C@@H](CCC(N)=O)[C@]2(C)CC(N)=O.[CH3-].[Co+3] [MeCbl, Methylcobalamin, reference compound] : 0.429

So for C/C1=C2N=C(/C=C3N=C(/C(C)=C4\[N-]C(C(CC(N)=O)C4(C)CCC(=O)NCC(C)OP(=O)([O-])OC4C(CO)OC(n5cnc6cc(C)c(C)cc65)C4O)C4(C)N=C1C(CCC(N)=O)C4(C)CC(N)=O)C(CCC(N)=O)C\3(C)C)C(CCC(N)=O)C/2(C)CC(N)=O.NC(CCC(=O)NC(C[S-])C(=O)NCC(=O)O)C(=O)O.[Co+3] (centres unmarked) [GSCbl, glutathionylcobalamin, reference compound] , the logged MMA in conditioned medium turned out to be 0.198

So for CC1=C2N=C(C=C3N=C(C(C)=C4[N-]C(C(CC(N)=O)C4(C)CCC(=O)NCC(C)OP(=O)([O-])OC4C(CO)OC(n5cnc6cc(C)c(C)cc65)C4O)C4(C)N=C1C(CCC(N)=O)C4(C)CC(N)=O)C(CCC(N)=O)C3(C)C)C(CCC(N)=O)C2(C)CC(N)=O.NCC[S][Co+2] (centres unmarked) , the logged MMA in conditioned medium turned out to be 0.194

So for CC1=C2N=C(C=C3N=C(C(C)=C4[N-]C(C(CC(N)=O)C4(C)CCC(=O)NCC(C)OP(=O)([O-])OC4C(CO)OC(n5cnc6cc(C)c(C)cc65)C4O)C4(C)N=C1C(CCC(N)=O)C4(C)CC(N)=O)C(CCC(N)=O)C3(C)C)C(CCC(N)=O)C2(C)CC(N)=O.CS[CH2][Co+2] (centres unmarked) , the logged MMA in conditioned medium turned out to be 0.254

Reference source for all entries: patent US11384113B2
